Assay: Transmittance at 860 nm of the product dissolved in chloroform
Format: physicochemical
Conditions: measured at 860 nm in chloroform (Table 1)
Procedure: In order to use colorants consisted in such optical filters, fairly high purity is required. However conventional near infrared rays absorbing colorants have low purity and inadequate absorption characteristics and thus can scarecely be used. […] The same procedure as in Example 1 or 3 was repeated to synthesize the compounds shown in Table 1, and yield, purity and transmittance at 860 nm of each product were then measured. […] *The transmittance was measured at 860 nm in chloroform.
recorded_metric: Transmittance* (%)
Give bare numbers, in %.

Some solved cases for reference:
>  <compound>
Cc1ccc(Nc2ccc(Nc3ccc(C)cc3)c3c2C(=O)c2c(Nc4ccc(C)cc4)ccc(Nc4ccc(F)cc4)c2C3=O)cc1 [Example 10]

>  <reported_value>
99.2

$$$$
>  <compound>
Cc1ccc(Nc2ccc(Nc3ccc(Cl)cc3)c3c2C(=O)c2c(Nc4ccc(C5CCCCC5)cc4)ccc(Nc4ccc(C)cc4)c2C3=O)cc1 [Example 9]

>  <reported_value>
99.5

$$$$
>  <compound>
Cc1ccc(Nc2ccc(Nc3ccc(C4CCCCC4)cc3)c3c2C(=O)c2c(Nc4ccc(Br)cc4)ccc(Nc4ccc(C5CCCCC5)cc4)c2C3=O)cc1 [Example 13]

>  <reported_value>
99.1

$$$$

Now consider the entry below.
**Query** Which Transmittance* is listed for O=C1c2c(Nc3ccc(Cl)cc3)ccc(Nc3ccc(Cl)cc3)c2C(=O)c2c(Nc3ccc(Cl)cc3)ccc(Nc3ccc(Cl)cc3)c21 [Example 6] ?
**Result** 100

Origin of the recorded values: patent US5342974A
